# Assay: Solubility in organic solvents
# Format: physicochemical
# Experimental Conditions: organic solvent or mixture; in dichloromethane, benzene, toluene, acetone and tetrahydrofuran (all in this range); read-out: solubility
Metric: solubility

Exercise: Quick check: solubility of O=C1C2c3cc4ccccc4cc3C1c1cc3ccccc3cc12 [Compound (3)] ?
Key: ~2000 µM
